Task for the reader: assign each of the following compounds its reported relative viability.
- System: RERF-LC-KJ
- protocol-notes: relative viability (nuclei count vs DMSO), 5 days (fraction); higher = more cells survive
- condition-context: first compound 0.08 µM
Just the number, please.

Task item: Indicate its recorded relative viability; the compound in question is CCCCCCCCCCCC1=C(O)C(=O)C=C(O)C1=O [Embelin] + C[C@]1(O)C[C@@H](c2nc(-c3ccc4ccc(-c5ccccc5)nc4c3)c3c(N)nccn32)C1 [Linsitinib] (partner 1 µM)
Reply: 0.905

Task item: Answer with the recorded relative viability of CCCCCCCCCCCC1=C(O)C(=O)C=C(O)C1=O [Embelin] + Cc1nc(NC(=O)N2CCC[C@H]2C(N)=O)sc1-c1ccnc(C(C)(C)C(F)(F)F)c1 [Alpelisib] (partner 2 µM) only.
Reply: 0.856

Task item: Quickly give me recorded relative viability for CCCCCCCCCCCC1=C(O)C(=O)C=C(O)C1=O [Embelin] + NC(=O)Nc1cc(-c2cccc(F)c2)sc1C(=O)N[C@H]1CCCNC1 [AZD7762] (partner 0.2 µM)
Reply: 1.02

Task item: Using known records, supply relative viability for CCCCCCCCCCCC1=C(O)C(=O)C=C(O)C1=O [Embelin] + O=C(CCCCCCC(=O)Nc1ccccc1)NO [Vorinostat] (partner 1 µM)
Reply: 0.673

Task item: // Input: CCCCCCCCCCCC1=C(O)C(=O)C=C(O)C1=O [Embelin] + C[C@@H](Oc1cc(-c2cnn(C3CCNCC3)c2)cnc1N)c1c(Cl)ccc(F)c1Cl [Crizotinib] (partner 1 µM) . Output its relative viability only.
Reply: 0.883

* * *

- Tested on: COR-L23
- protocol-notes: relative viability (nuclei count vs DMSO), 5 days (fraction); higher = more cells survive
- condition-context: first compound 1.265 µM
What relative viability was measured for each of the following?
Give the value as a plain number.

Task item: Return reported relative viability. Input compound: Clc1ccc(Nc2nnc(Cc3ccncc3)c3ccccc23)cc1 [Vatalanib] + C[C@@H](Oc1cc(-c2cnn(C3CCNCC3)c2)cnc1N)c1c(Cl)ccc(F)c1Cl [Crizotinib] (partner 1 µM)
Reply: 0.683

Task item: Fill in reported relative viability for this entry: COc1cc(N2CCC(C(N)=O)CC2)ccc1Nc1nc(N)c(Cl)c(Nc2ccccc2S(=O)(=O)C(C)C)n1 [HG-5-88-01] + CC(C)C[C@H](NC(=O)[C@H](Cc1ccccc1)NC(=O)c1cnccn1)B(O)O [Bortezomib] (partner 0.002 µM)
Reply: 0.91

Task item: Read the entry Clc1ccc(Nc2nnc(Cc3ccncc3)c3ccccc23)cc1 [Vatalanib] + Cc1nc(NC(=O)N2CCC[C@H]2C(N)=O)sc1-c1ccnc(C(C)(C)C(F)(F)F)c1 [Alpelisib] (partner 2 µM) and write its reported relative viability.
Reply: 0.665

Task item: Give recorded relative viability. COc1cc(N2CCC(C(N)=O)CC2)ccc1Nc1nc(N)c(Cl)c(Nc2ccccc2S(=O)(=O)C(C)C)n1 [HG-5-88-01] + C[C@]1(O)C[C@@H](c2nc(-c3ccc4ccc(-c5ccccc5)nc4c3)c3c(N)nccn32)C1 [Linsitinib] (partner 1 µM)
Reply: 0.738

Task item: Kindly indicate its recorded relative viability. Item: Clc1ccc(Nc2nnc(Cc3ccncc3)c3ccccc23)cc1 [Vatalanib] + CC(=O)c1c(C)c2cnc(Nc3ccc(N4CCNCC4)cn3)nc2n(C2CCCC2)c1=O [Palbociclib] (partner 0.5 µM)
Reply: 0.293

Task item: Quote relative viability reported for Clc1ccc(Nc2nnc(Cc3ccncc3)c3ccccc23)cc1 [Vatalanib] + CS(=O)(=O)N1CCN(Cc2cc3nc(-c4cccc5[nH]ncc45)nc(N4CCOCC4)c3s2)CC1 [Pictilisib] (partner 1 µM) please.
Reply: 0.758

Task item: Given COc1cc(N2CCC(C(N)=O)CC2)ccc1Nc1nc(N)c(Cl)c(Nc2ccccc2S(=O)(=O)C(C)C)n1 [HG-5-88-01] + O=C(CCCCCCC(=O)Nc1ccccc1)NO [Vorinostat] (partner 1 µM) , respond with its relative viability.
Reply: 0.364

Task item: Give recorded relative viability. Clc1ccc(Nc2nnc(Cc3ccncc3)c3ccccc23)cc1 [Vatalanib] + COc1cc2c(Oc3ccc(NC(=O)C4(C(=O)Nc5ccc(F)cc5)CC4)cc3F)ccnc2cc1OCCCN1CCOCC1 [Foretinib] (partner 0.25 µM)
Reply: 1.04

Task item: Assign relative viability to the following record: COc1cc(N2CCC(C(N)=O)CC2)ccc1Nc1nc(N)c(Cl)c(Nc2ccccc2S(=O)(=O)C(C)C)n1 [HG-5-88-01] + Nc1ncn([C@H]2C[C@H](O)[C@@H](CO)O2)c(=O)n1 [Decitabine] (partner 2 µM)
Reply: 0.379

Task item: Entry Clc1ccc(Nc2nnc(Cc3ccncc3)c3ccccc23)cc1 [Vatalanib] + Cc1cc(Nc2cc(N3CCN(C)CC3)nc(Sc3ccc(NC(=O)C4CC4)cc3)n2)n[nH]1 [Tozasertib] (partner 0.1 µM) needs its relative viability filled in; supply it.
Reply: 0.168

Task item: // Input: Clc1ccc(Nc2nnc(Cc3ccncc3)c3ccccc23)cc1 [Vatalanib] + CC(=O)Nc1cccc(-n2c(=O)n(C3CC3)c(=O)c3c(Nc4ccc(I)cc4F)n(C)c(=O)c(C)c32)c1 [Trametinib] (partner 0.02 µM) . Output its relative viability only.
Reply: 0.578

Task item: Let me know recorded relative viability for COc1cc(N2CCC(C(N)=O)CC2)ccc1Nc1nc(N)c(Cl)c(Nc2ccccc2S(=O)(=O)C(C)C)n1 [HG-5-88-01] + CS(=O)(=O)CCNCc1ccc(-c2ccc3ncnc(Nc4ccc(OCc5cccc(F)c5)c(Cl)c4)c3c2)o1 [Lapatinib] (partner 2 µM) , thanks.
Reply: 0.921
